B1: library; numbered along this chain (parent)
chain: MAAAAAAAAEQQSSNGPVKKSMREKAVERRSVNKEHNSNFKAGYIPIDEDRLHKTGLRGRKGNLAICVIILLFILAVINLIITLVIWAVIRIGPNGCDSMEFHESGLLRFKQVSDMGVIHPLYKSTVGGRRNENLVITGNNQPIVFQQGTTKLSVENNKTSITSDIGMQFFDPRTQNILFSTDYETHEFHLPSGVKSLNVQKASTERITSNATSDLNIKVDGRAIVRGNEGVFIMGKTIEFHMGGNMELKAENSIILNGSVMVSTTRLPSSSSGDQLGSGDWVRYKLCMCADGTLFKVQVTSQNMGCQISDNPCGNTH

- Variants of: B1
- Assay overview: SGCB cell-surface expression functional score (HA stain, bin4 vs bin1, normalised to synonymous) (log10 ratio); higher = more cell-surface SGCB (functional)
// SGCB cell-surface expression functional score (log10) lookup, one value per entry
Just the number, please, no unit attached.

Study these solved cases before continuing.
mutation=S161W observed_value=-0.98
mutation=G278S observed_value=0.15
mutation=Q12W observed_value=-0.29
mutation=N199D observed_value=0.38

Alright, here's another variant for you.
Specify measured SGCB cell-surface expression functional score (log10) for `E133D` .
0.54
